ASSAY SYSTEM: T1, human SLITRK6 extracellular domain linked to his tag (human, UniProt Q9H5Y7 27-608)
T1 construct: extracellular domain; also called huSLITRK6; Hu SLITRK6; not shown: his tag
ASSAY EXPLANATION: BLI binning on huSLITRK6-his; Ab1 = row antibody first, then Ab2 (competitor) = phA108
Entries and their measured epitope binning signal follow.

hu1H2-03 (antibody, V domains shown, see m20) VH: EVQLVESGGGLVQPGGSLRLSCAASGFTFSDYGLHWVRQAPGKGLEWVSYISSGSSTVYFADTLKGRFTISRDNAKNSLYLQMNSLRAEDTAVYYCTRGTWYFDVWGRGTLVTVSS VL: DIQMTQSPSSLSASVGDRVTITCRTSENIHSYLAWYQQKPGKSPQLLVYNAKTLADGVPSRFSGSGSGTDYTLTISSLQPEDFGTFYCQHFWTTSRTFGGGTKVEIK
0.304

Q) Give epitope binning signal for the following binder: hu14G1-03 (antibody, V domains shown) VH: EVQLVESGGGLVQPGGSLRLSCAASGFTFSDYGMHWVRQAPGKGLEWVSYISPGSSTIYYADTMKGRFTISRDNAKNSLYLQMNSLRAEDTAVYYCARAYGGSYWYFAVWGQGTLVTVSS VL: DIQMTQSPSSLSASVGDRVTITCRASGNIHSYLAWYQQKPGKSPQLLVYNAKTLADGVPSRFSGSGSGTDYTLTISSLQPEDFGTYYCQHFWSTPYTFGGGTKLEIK
A) 0.323

Q) Give epitope binning signal for the following binder: phA108 (antibody, V domains shown, From phage display, then full-length construction; Only the variable regions are tied to the name) VH: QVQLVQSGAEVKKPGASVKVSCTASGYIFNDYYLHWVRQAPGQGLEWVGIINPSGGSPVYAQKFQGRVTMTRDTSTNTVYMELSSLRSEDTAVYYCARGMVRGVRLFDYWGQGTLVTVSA VL: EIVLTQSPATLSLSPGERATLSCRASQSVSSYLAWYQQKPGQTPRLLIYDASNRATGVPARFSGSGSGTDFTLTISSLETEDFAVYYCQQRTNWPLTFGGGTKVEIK
A) 0.0346
